Origin of measurements: PubChem BioAssay (NCI)

Listing: growth inhibition of selected molecules
Assay: NCI Yeast Anticancer Drug Screen. Data for the mec2-1 strain (AID 157)
Conditions: S. cerevisiae mec2-1 strain, at 50.0 µM, active compounds read high
The panel holds about 79,000 compounds, 15% with a hit somewhere; the sample as a whole holds those more often.
Reported Endpoint: growth inhibition (%)

| Molecule | Value Reported |
| --- | --- |
| CC1(C(=O)O)CCCC1C(=O)O (stereo not given) | 6.8 |
| Nc1ccc2c(c1)C(=O)CCCC2 | -8.95 |
| C[N+]1(C)C2Cc3ccccc3C1Cc1ccccc12 | -11.6 |
| CN1C(=O)NC(=O)C1(C)C=O (stereo not given) | 0.9 |
| NC(=O)c1cn(C2OC(CO)C(O)C2O)c(=O)[nH]c1=O (stereo not given) | -8.8 |
| O=C(OC(C[n+]1ccccc1)c1ccccc1)c1ccccc1 (stereo not given) | -0.9 |
| CC(C)CCOC(=O)NC(Nc1ccc(F)cc1)(C(F)(F)F)C(F)(F)F | -15.9 |
| COC1OC(COC(c2ccccc2)(c2ccccc2)c2ccccc2)C2OC12 (stereo not given) | 5.15 |
| CCCCOC(=O)c1ccc(NC(=O)CCC(C)Cl)cc1 (stereo not given) | 13.2 |
| COc1ccc(C(=O)Nc2ccn(CCOC(=O)c3ccc(OC)cc3)c(=O)n2)cc1 | 16.9 |
| Cn1cc(C(C)(c2ccccc2)c2cn(C)c3ccccc23)c2ccccc21 | -6 |
| C[C@]12CCC(=O)C=C1CC[C@@H]1[C@@H]2CC[C@@]2(C)[C@H]1CC[C@]2(O)C(=O)CCC#N | -2.6 |
| N[C@@H](CCC(=O)NC(Cc1ccccc1)C(=O)NCP(=O)(O)O)C(=O)O (stereo not given in full) | -17.9 |
| Clc1ccc(-c2oc(-c3ccc(Cl)cc3)c3ccccc23)cc1 | -13.2 |
| O=C(CC(O)(C(F)(F)F)C(F)(F)F)c1cccs1 | 15.4 |
| C=C1CCCC(C)(C)C1CC/C(C)=C/CC/C(C)=C/CO (stereo not given) | -1.45 |
| CCOc1ccc(NC(=S)NC=C(C(N)=O)C(N)=O)cc1 | -41.3 |
| O=C(NCCCCCCNC(=O)NCc1ccco1)NCc1ccco1 | -28.2 |
| CN(CCNC(=O)NCCCCCCNC(=O)NCCN(C)c1ccccc1)c1ccccc1 | -44 |
| COc1cc(C2SC(N)=Nc3c2c(C)nn3C(=O)c2ccc(Cl)cc2)ccc1O (stereo not given) | 15.8 |
| O=C(O)Cc1cccc2c(=O)cc(Cc3ccccc3)oc12 | -16.6 |
| N=Cc1ccccc1O | -10.3 |
| CCCCCOC(=O)c1cccnc1 | -16.1 |
| COc1cccc(C=O)c1[O-].COc1cccc(C=O)c1[O-].[Zn+2] | 17.9 |
| CC1=C(/C=C/C(C)=C/C=C/C(C)=C/C=C/C=C(C)/C=C/C=C(\C)C=O)C(C)(C)CCC1 | 4.85 |
| COc1cc(C2c3cc4c(cc3OC(NC3CCCCC3)C2C)OCO4)cc(OC)c1OC (stereo not given) | -9.4 |
| OCCCNc1nc2cc(Cl)ccc2o1 | 22.6 |
| CCN1CCCC(C#N)(c2ccccc2)CC1 (stereo not given) | 7.45 |
| c1ccc(Cc2nnc3n2CCC(c2ccccc2)S3)cc1 (stereo not given) | 1.3 |
| CCCCCCCCCCCCCCCCCCN=C=O | -45.8 |
| Nc1ccc(/C=C\C(=O)c2ccccc2)cc1 | 1.05 |
| CCC(=O)C(C)C1(C(=O)OC)NC(=S)NC(=O)C1C#N (stereo not given) | -4.75 |
| O=C(O)C1CCCCC1C(=O)Nc1ccc(Cl)c(Cl)c1 (stereo not given) | 20.1 |
| O=c1cc(Nc2ccc(Cl)cc2)[nH]c(=O)[nH]1 | -5.45 |
| COc1ccc(/C=C2/C(=O)N(C(=O)c3ccc(Cl)cc3)N=C2C)cc1OC | -36.9 |
| CN(C)N=Nc1ccc(C(=O)NC(Cc2ccccc2)C(=O)O)cc1 (stereo not given) | -4.1 |
| O=C1CCC2=C3C4CCCC5OC6CC(=O)CCC6=C(C6CCCC(OC2C1)C36)C54 (stereo not given) | -2.15 |
| [Br][Pt+2][Br].[NH-]c1ccc(F)cc1.[NH-]c1ccc(F)cc1 | 9.2 |
| O=C1NC(=Nc2ccccc2Cl)SC1C(=O)Nc1ccc([N+](=O)[O-])cc1[N+](=O)[O-] (stereo not given) | 7.85 |
| Cc1ccccc1N=Nc1c(-c2ccccc2)nn(C(N)=S)c1-c1ccccc1 | 7.2 |
